B1: NELF-E aptamer (parent)
chain: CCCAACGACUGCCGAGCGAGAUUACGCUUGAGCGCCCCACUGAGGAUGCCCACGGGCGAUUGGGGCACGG

- Variants of: B1
- run description: HiTS-RAP
- condition description: with NELF-E (Drosophila)
pKd: −log10 of the molar value.
Answer n if pKd is under 8, and y if it is 8 or more.

# example entries with known answers
U10G C27A :: y
C53U :: y
G16U C37U :: n
A5U U10G :: y
C27G U29G :: y
C9G U47G :: y
U10G U22C :: y
U10A A67G :: y

State whether the measured pKd reaches 8, counting equality as reaching it, for U29C U41G y

State whether the measured pKd reaches 8, counting equality as reaching it, for C12G C53U y

State whether the measured pKd reaches 8, counting equality as reaching it, for C6G A46G n

State whether the measured pKd reaches 8, counting equality as reaching it, for G7U C13U y

State whether the measured pKd reaches 8, counting equality as reaching it, for A8G C9G y
